# system name: EGFR Δ746-750 mutant (Homo sapiens (Human), UniProt P00533, DEL746-750)
# Sequence (P00533 other isoform, or with tags, fused parts or gaps del 1-668/del 746-750 limits assumed): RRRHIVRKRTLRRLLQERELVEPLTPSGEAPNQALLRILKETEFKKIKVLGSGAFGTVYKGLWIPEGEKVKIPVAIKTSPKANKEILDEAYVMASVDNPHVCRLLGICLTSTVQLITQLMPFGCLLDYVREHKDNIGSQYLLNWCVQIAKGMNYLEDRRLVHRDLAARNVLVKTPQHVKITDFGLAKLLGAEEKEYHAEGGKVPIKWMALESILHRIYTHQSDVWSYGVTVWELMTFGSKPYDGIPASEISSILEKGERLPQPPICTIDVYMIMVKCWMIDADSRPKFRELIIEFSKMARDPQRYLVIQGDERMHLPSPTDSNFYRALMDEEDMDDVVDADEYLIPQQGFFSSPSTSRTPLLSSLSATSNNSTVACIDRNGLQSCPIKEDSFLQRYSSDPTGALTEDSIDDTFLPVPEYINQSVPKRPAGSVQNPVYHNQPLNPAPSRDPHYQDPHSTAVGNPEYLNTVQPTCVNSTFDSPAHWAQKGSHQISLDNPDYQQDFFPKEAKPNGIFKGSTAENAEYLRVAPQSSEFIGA
# procedure summary: HotSpot radiometric kinase assay, EGFR Δ746-750 mutant
# details: 10 μM ATP
recorded endpoint: IC50 (nM)

Worked examples, 2 molecules total:
CCOc1nn([C@@H](C)CO)c2c1/C=C/c1n[nH]c3cc(F)c(cc13)-c1cnn(C)c1O[C@@H](C)CN(C)C2; 0.22
CCOc1nn(C)c2c1/C=C/c1n[nH]c3ccc(cc13)-c1cnn(C)c1OC1CN(C2)C1; 17.5

(a) C[C@H]1CN(C)Cc2c(c(OC3CCNCC3)nn2C)/C=C/c2n[nH]c3ccc(cc23)-c2cnn(C)c2O1
(b) Cn1ncc2c1OCCCCOc1ccccc1/C=C/c1n[nH]c3ccc-2cc13
*Q* From the items above, decide which of a and b has the lower IC50 reading. API: response body contains the label of the selected item.
*A* a
(a: 15.2 nM, b: 132 nM)

(1) CC(C)Oc1nn([C@@H](C)CO)c2c1/C=C/c1n[nH]c3cc(F)c(cc13)-c1cnn(C)c1O[C@@H](C)CN(C)C2
(2) C[C@H]1CN(C)Cc2c(c(OC3CCN(S(C)(=O)=O)CC3)nn2C)/C=C/c2n[nH]c3ccc(cc23)-c2cnn(C)c2O1
*Q* From the items above, decide which of 1 and 2 has the lower IC50 reading. API: response body contains the label of the selected item.
*A* 1
(1: 4.08 nM, 2: 39.4 nM)

----------
# system name: EGFR L858R mutant (Homo sapiens (Human), UniProt P00533, L858R)
# Sequence (P00533 25-1210 L858R): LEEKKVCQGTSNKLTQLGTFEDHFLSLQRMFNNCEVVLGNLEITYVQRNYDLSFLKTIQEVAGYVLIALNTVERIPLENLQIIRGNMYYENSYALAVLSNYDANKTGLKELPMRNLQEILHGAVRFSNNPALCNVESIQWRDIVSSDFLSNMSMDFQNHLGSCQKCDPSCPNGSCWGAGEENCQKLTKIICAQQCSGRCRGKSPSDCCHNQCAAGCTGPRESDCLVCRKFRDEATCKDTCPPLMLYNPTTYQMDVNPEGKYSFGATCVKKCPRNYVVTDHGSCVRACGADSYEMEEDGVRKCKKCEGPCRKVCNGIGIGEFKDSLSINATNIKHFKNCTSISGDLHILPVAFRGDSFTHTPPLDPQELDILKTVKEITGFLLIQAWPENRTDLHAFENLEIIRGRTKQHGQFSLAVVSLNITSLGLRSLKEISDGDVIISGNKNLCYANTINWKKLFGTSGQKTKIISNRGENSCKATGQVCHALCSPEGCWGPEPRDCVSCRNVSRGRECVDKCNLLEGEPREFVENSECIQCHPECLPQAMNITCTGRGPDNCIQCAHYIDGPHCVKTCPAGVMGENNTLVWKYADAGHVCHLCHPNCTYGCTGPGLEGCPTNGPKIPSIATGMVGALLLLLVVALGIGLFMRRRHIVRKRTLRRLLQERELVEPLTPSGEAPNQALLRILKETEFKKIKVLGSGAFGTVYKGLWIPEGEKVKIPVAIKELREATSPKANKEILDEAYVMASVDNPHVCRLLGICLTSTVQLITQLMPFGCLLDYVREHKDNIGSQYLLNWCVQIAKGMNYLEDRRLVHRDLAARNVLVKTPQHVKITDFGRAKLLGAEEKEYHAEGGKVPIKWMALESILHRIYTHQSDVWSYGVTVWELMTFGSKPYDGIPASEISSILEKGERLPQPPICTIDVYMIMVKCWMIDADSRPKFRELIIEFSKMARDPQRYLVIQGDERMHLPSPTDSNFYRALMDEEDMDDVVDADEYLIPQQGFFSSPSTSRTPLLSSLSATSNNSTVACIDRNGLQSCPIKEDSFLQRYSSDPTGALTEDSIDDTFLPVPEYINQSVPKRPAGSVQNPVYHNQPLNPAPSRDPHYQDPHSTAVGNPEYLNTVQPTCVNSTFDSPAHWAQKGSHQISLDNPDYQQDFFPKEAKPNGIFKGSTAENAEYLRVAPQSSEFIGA
# procedure summary: HotSpot radiometric kinase assay, EGFR L858R mutant
# details: 10 μM ATP
recorded endpoint: IC50 (nM)

Cc1c2c(nn1CCN1CCCC1)OCCCOc1c(cnn1C)-c1ccc3[nH]nc(c3c1)/C=C/2; 114
Cc1c2c(nn1CCO)OCCOC(C)c1c(cnn1C)-c1ccc3[nH]nc(c3c1)/C=C/2 (stereo not drawn); 526

(A) Cc1nn([C@H]2CC[C@@H]2O)c2c1/C=C/c1n[nH]c3ccc(cc13)-c1cnn(C)c1OCCCO2 (racemic)
(B) Cc1c2c(nn1[C@H]1C[C@@H](NCCN(C)C)C1)OCCCOc1c(cnn1C)-c1ccc3[nH]nc(c3c1)/C=C/2
*Q* // max by IC50 over [ A , B ] API: response body contains the label of the selected item.
*A* A

(1) Cc1nn(C)c2c1/C=C/c1n[nH]c3ccc(cc13)-c1cnn(C)c1O[C@@H](C)CN(C1CC1)C2
(2) CCOc1nn(CCO)c2c1/C=C/c1n[nH]c3ccc(cc13)-c1c(C)nn(C)c1O[C@H](C)CN(C1CC1)C2
(3) Cc1nn(CCO)c2c1/C=C/c1n[nH]c3ccc(cc13)-c1cnn(C)c1OC(C1CCC1)CN(C)C2 (stereo not drawn)
(4) CCOc1nn(C)c2c1/C=C/c1n[nH]c3ccc(cc13)-c1cnn(C)c1OC1CN(C2)C1
*Q* Put the entries in order of IC50, starting with the largest number. Reply with the labels, ordered as the question asks.
*A* 4, 1, 3, 2
(4: 73 nM, 1: 47.1 nM, 3: 20.7 nM, 2: 5.5 nM)

(I) CCN1Cc2c(c(OC(C)C)nn2C[C@H](C)O)/C=C/c2n[nH]c3ccc(cc23)-c2cnn(C)c2O[C@H](C)C1
(II) CCOc1nn(C)c2c1/C=C/c1n[nH]c3ccc(cc13)-c1cnn(C)c1O[C@@H]1CCCN(C2)C1
*Q* // max by IC50 over [ I , II ] API: response body contains the label of the selected item.
*A* I
(I: 60.1 nM, II: 34.4 nM)

(I) CCOc1nn(C)c2c1/C=C/c1n[nH]c3ccc(cc13)-c1cnn(C)c1O[C@@H]1CCN(C2)C1
(II) Cc1nn(C[C@@H](C)O)c2c1/C=C/c1n[nH]c3ccc(cc13)-c1cnn(C)c1O[C@@H](C)CN(C)C2
(III) CCOc1nn(CCO)c2c1/C=C/c1n[nH]c3cc(F)c(cc13)-c1cnn(C)c1O[C@@H](C)CN(C)C2
*Q* Put the entries in order of IC50, starting with the largest number. Reply with the labels, ordered as the question asks.
*A* I, II, III
